Target: IRE1α (Homo sapiens, UniProt O75460)
Sequence (O75460 468-977 limits assumed): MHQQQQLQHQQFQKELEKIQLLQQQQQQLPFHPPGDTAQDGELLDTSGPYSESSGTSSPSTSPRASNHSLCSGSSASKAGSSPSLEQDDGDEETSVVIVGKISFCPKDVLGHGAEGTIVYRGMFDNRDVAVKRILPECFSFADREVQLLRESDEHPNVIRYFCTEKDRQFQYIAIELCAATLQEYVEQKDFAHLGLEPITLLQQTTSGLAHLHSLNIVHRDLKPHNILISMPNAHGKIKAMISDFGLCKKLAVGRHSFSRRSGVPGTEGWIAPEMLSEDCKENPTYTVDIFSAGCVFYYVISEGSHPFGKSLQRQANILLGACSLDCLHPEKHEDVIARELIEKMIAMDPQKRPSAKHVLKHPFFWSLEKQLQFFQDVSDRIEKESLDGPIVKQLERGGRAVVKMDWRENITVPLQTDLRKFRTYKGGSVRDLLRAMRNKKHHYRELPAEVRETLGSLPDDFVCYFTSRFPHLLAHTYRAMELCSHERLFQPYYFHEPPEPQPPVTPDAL
Kindly state log10 IC50 for each of the entries shown.
log10 IC50, nM

Take each entry in turn and give its log10 IC50.
1. CC(C)c1nc(-c2ccc(NS(=O)(=O)c3ccccc3Cl)c(F)c2)c2c(N)ncc([C@H]3CC[C@H](NC4COC4)CC3)n12
2. CC(C)c1nc(-c2ccc(NS(=O)(=O)c3ccc(C(F)(F)F)nc3)c(F)c2)c2c(N)ncc(C3=CCC(NC4COC4)CC3)n12 (centres unmarked)
3. CC(C)c1nc(-c2ccc(NS(=O)(=O)c3ccccc3Cl)c(F)c2)c2c(N)ncc([C@H]3CC[C@@H](NC4COC4)CC3)n12

## Result
[0.81, 2.15, 2.45]

Take each entry in turn and give its log10 IC50.
1. Cc1nc(CS(=O)(=O)Nc2ccc(-c3nc(C(C)C)n4c(C5=CCC(N)CC5)cnc(N)c34)cc2F)cs1 (centres unmarked)
2. Cc1nc(S(=O)(=O)Nc2ccc(-c3nc(C(C)C)n4c(C5=CCC(NC6COC6)CC5)cnc(N)c34)cc2F)cs1 (centres unmarked)
3. COc1ccc(S(=O)(=O)Nc2ccc(-c3nc(C(C)C)n4c(C5=CCC(NC6COC6)CC5)cnc(N)c34)cc2F)cn1 (centres unmarked)
4. CC(C)c1nc(-c2cnc(NS(=O)(=O)c3ccccc3Cl)c(F)c2)c2c(N)ncc(C3=CCC(NC4COC4)CC3)n12 (centres unmarked)

## Result
[1.60, 2.68, 2.62, 1.79]
